Test system: A498 renal
Measurement notes: NCI tumour cell line growth inhibition, 48 h

{"Compound": "S=C(N/N=C(/c1ccccc1)c1ccccn1)Nc1ccc(Cl)cc1", "TGI": "9.4 µM"}
{"Compound": "CC1=C(C(=O)CC(=O)C(=O)Nc2ccccc2)Sc2ccccc2N1", "TGI": "> 100 µM"}
{"Compound": "Cc1cc(C)n(-c2nc3ccccc3c(=O)n2-c2ccccc2)n1", "TGI": "> 100 µM"}
{"Compound": "Cc1ccccc1NC(=O)C1C(=O)N(c2ccccc2C)C(=O)/C1=N\\N (stereo not given)", "TGI": "> 100 µM"}
{"Compound": "CCOC(=O)CCC(NC(=O)c1ccc(Nc2nc3ccccc3n3cccc23)cc1)C(=O)OCC (stereo not given)", "TGI": "> 100 µM"}
{"Compound": "CC(=O)OCC1OC(n2c(=O)n(-c3ccccc3)c(=O)c3cc(Br)cc(Br)c32)C(OC(C)=O)C(OC(C)=O)C1OC(C)=O (stereo not given)", "TGI": "> 100 µM"}
{"Compound": "Cc1nc2ccccc2c(=O)n1NC(=S)Nc1cccc(Cl)c1", "TGI": "> 100 µM"}
{"Compound": "C[C@H]1[C@H](C)CC[C@]2(C(=O)O)CC[C@]3(C)C(=CC[C@@H]4[C@@]5(C)CC[C@H](OC(=O)/C=C/c6ccc(O)cc6)C(C)(C)[C@@H]5CC[C@]43C)[C@H]12", "TGI": "37.9 µM"}
{"Compound": "CCN(CC)CCn1c2cc3c(cc2c(=O)c2cccnc21)OCO3", "TGI": "> 10 µM"}
{"Compound": "CCC[CH2][Sn]([CH2]CCC)([O]C(=O)c1cc(OC)c(OC)cc1OC)[O]C(=O)c1cc(OC)c(OC)cc1OC", "TGI": "3.21 µM"}
{"Compound": "CC1=CC2=C(C(N)=O)C(=O)OC2(C)C(c2ccccc2)C1 (stereo not given)", "TGI": "> 100 µM"}
{"Compound": "Cc1ccc(C2(O)CC(c3ccc([N+](=O)[O-])o3)=NN2C(=O)COc2ccccc2Cl)cc1 (stereo not given)", "TGI": "> 100 µM"}
{"Compound": "O=C1Nc2cc([N+](=O)[O-])ccc2C(=O)N2CCC[C@@H]12", "TGI": "> 100 µM"}
{"Compound": "NCCCCN(CCCN)Cc1ccccc1", "TGI": "> 100 µM"}
{"Compound": "Cc1ccccc1-c1c(N)nc(N)nc1C(=O)Nc1nccs1", "TGI": "> 100 µM"}
{"Compound": "OCc1ccc2c(c1)CC1(C2)Cc2cc3c(cc2C1)CCC3", "TGI": "35.4 µM"}
{"Compound": "COc1cc(/C=C/c2ccc(OC(C)=O)cc2)cc(OC)c1OC", "TGI": "71.8 µM"}
{"Compound": "COC(=O)c1c2c(c(-c3ccccc3)c3c1-c1nc(Cl)ccc1CC3)CCc1ccc(Cl)nc1-2", "TGI": "> 100 µM"}
{"Compound": "O=C(O)CCCSc1nc2ccccc2s1", "TGI": "> 100 µM"}
{"Compound": "O=c1cc(-c2ccccc2)oc2ccc(-c3ccc4oc(-c5ccccc5)cc(=O)c4c3)cc12", "TGI": "27.9 µM"}

* * *

Tested on: SW-620 colon
Measurement notes: NCI tumour cell line growth inhibition, 48 h; in the data active = GI50 below about 0.43 µM; inactive = the rest
Outcome codes: 1 = active, -1 = inactive

{"Molecule": "COc1cc2c(c(OC)c1OC)-c1ccc(SC)c(=O)cc1[C@@H](NCc1cccc(C#N)c1)CC2", "Qualitative label": 1}
{"Molecule": "CCOC(=O)Cn1c(C)c(/C=N/NC(=O)c2cc3c(ccc4ccccc43)o2)c2ccccc21", "Qualitative label": -1}
{"Molecule": "CCC[CH2][Sn]([CH2]CCC)([O]C(=O)c1cc(OC)c(OC)cc1OC)[O]C(=O)c1cc(OC)c(OC)cc1OC", "Qualitative label": -1}
{"Molecule": "CCC[CH2][Ge]([CH2]CCC)([CH2]CCC)[O]C(=O)C(OC)c1ccccc1 (stereo not drawn)", "Qualitative label": -1}
{"Molecule": "CC1(C)N=C(N)N=C(N)N1c1cccc(CCCCc2ccccc2)c1", "Qualitative label": 1}
{"Molecule": "C/C1=C\\C/C=C(\\C)[C@H]2CC(CC/C(C)=C/CC1)[C@@](C)(CO)O2", "Qualitative label": -1}
{"Molecule": "Cc1cc2c3ccccc3ccc2[n+]2ccccc12", "Qualitative label": -1}
{"Molecule": "C[C@H]1[C@H](C)CC[C@]2(C(=O)O)CC[C@]3(C)C(=CC[C@@H]4[C@@]5(C)CC[C@H](OC(=O)/C=C/c6ccc(O)cc6)C(C)(C)[C@@H]5CC[C@]43C)[C@H]12", "Qualitative label": -1}
{"Molecule": "Cc1ccc2c(Nc3cccc(Cl)c3F)ncc(NC(=O)c3csc4c(N)ncnc34)c2c1", "Qualitative label": -1}
{"Molecule": "CN(C)C(=O)c1cc2cnc(Nc3ccc(-c4csc5c(=O)cc(N6CCNCC6)oc45)cc3)nc2n1C1CCCC1", "Qualitative label": 1}
{"Molecule": "CCN(CC)CCCOc1cc(O)c2c(=O)cc(-c3ccccc3)oc2c1", "Qualitative label": -1}
{"Molecule": "COc1ccc2c(c1)sc1nc(-c3ccccc3)c(-c3ccc(O)c(OC)c3)n12", "Qualitative label": -1}
{"Molecule": "Cc1ccc(N=Nc2c(N)nn(-c3ccccc3)c2N)cc1", "Qualitative label": -1}
